pIC50: recorded values
# Test system: WSU-DLCL2
# protocolDescription: Methylated lysine of histone-H3 (H3K27Me3) detection by ELISA, WSU-DLCL2 cells
# Type: cell-based
# testContext: Homo sapiens, WSUDLCL2, 168 h; WSU-DLCL2, 7 days treatment, H3K27Me3 normalized to total histone-3; read-out: IC50 of cell methylation, WSU-DLCL2
pIC50: −log10 of the molar value.

Example entries begin here.
INSERT INTO measurements (molecule, quantity, val) VALUES
  ('CCN(c1cc(O[C@H]2C[C@H](N3CCN(C(C)=O)CC3)C2)cc(C(=O)NCc2c(C)cc(C)[nH]c2=O)c1C)C1CCOCC1', 'pIC50', '6.30 to 7.30'),
  ('CCN(c1cc(O[C@H]2C[C@@H](N3CCNCC3)C2)cc(C(=O)NCc2c(C)cc(C)[nH]c2=O)c1C)C1CCOCC1', 'pIC50', '6.30 to 7.30');

Q. For "CCN(c1cc(O[C@H]2C[C@@H](N3CCN(C(C)C)CC3)C2)cc(C(=O)NCc2c(C)cc(C)[nH]c2=O)c1C)C1CCOCC1" , what is its reported pIC50?
A. 6.30 to 7.30

Q. Again, but for CCN(c1cc(OC2CC(C(=O)N3CCOCC3)C2)cc(C(=O)NCc2c(C)cc(C)[nH]c2=O)c1C)C1CCOCC1 (stereo not drawn)
A. 6.30 to 7.30

Q. Cool, now "CCN1CCN([C@H]2C[C@H](Oc3cc(C(=O)NCc4c(C)cc(C)[nH]c4=O)c(C)c(N(CC)C4CCOCC4)c3)C2)CC1"
A. 6.30 to 7.30

Q. What do you have for "CCN1CCN([C@H]2C[C@@H](Oc3cc(C(=O)NCc4c(C)cc(C)[nH]c4=O)c(C)c(N(CC)C4CCOCC4)c3)C2)CC1" ?
A. < 6.00
